Taken from ChEMBL document CHEMBL1153754.

# Assayed target: Mitogen-activated protein kinase 10 (Homo sapiens, UniProt P53779)
# Sequence (P53779 whole entry, the tested form may be a part): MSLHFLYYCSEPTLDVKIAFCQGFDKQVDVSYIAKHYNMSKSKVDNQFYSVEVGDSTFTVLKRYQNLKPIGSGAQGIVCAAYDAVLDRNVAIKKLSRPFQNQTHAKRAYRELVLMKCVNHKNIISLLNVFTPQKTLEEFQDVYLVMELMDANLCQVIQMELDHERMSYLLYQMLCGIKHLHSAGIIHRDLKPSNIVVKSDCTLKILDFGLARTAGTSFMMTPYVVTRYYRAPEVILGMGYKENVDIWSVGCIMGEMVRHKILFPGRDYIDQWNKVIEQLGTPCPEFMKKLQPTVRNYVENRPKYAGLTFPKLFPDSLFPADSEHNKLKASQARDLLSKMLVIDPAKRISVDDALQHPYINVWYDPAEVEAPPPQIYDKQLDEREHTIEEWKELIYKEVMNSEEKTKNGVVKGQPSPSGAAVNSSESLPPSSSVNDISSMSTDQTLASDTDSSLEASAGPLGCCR
# Method: Inhibition of N-terminal histidine-tagged human full length JNK3 by radiometric filter binding assay
Readout label: IC50 (nM)

(P) COc1cc2c(cc1Cl)C(c1cccc(Cl)c1)=NCC2
(Q) COc1cc2c(cc1Cl)C(c1ccc(Cl)c(Cl)c1)=NCC2
Param pair: P , Q . Output: the one whose IC50 is numerically greater. Write the label of whichever entry you select.
P

###

Overview of recorded IC50 for various compounds
# Assayed target: Mitogen-activated protein kinase 14 (Homo sapiens, UniProt Q16539)
# Sequence (Q16539 whole entry): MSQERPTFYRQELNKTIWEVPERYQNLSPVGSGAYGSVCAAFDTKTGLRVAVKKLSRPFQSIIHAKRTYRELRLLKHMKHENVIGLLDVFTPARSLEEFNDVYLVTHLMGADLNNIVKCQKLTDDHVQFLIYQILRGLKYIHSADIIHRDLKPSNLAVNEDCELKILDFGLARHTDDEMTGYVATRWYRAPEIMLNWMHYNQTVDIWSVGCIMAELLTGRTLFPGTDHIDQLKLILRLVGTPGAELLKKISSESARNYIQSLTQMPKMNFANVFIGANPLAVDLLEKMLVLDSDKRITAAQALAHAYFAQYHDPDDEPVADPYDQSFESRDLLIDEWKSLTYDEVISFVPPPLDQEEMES
# Method: Inhibition of N-terminal GST-tagged p38alpha expressed in Escherichia coli by fluorescence anisotropy

• COc1cccc(C2=NCCc3cc(OC)c(OC)cc32)c1 = > 15.8 µM
• COc1cc2c(cc1Cl)C(Cc1ccccc1)=NCC2 = > 15.8 µM
• COc1cc2c(cc1Cl)C(c1ccc(F)cc1)=NCC2 = > 15.8 µM
• COc1cc2c(cc1Cl)C(c1ccc(Cl)c(Cl)c1)=NCC2 = 7.94 µM
• Clc1cccc(C2=NCCc3ccccc32)c1 = > 15.8 µM
• COc1cc2c(cc1OC)C(c1ccc(Cl)cc1)=NCC2 = > 15.8 µM

The compound listed as CCC1=NCCc2cc(OC)c(Cl)cc21 shows IC50 equal to > 15.8 µM

For reference, reported IC50 for COc1cc2c(cc1Cl)C(c1ccc3ccccc3c1)=NCC2 stands at > 15.8 µM

Query COc1cc2c(cc1Cl)C(c1cccc(C)c1)=NCC2 yields IC50 of > 15.8 µM

Reported IC50 for COc1cc2c(cc1OC)C(c1ccc(Cl)c(Cl)c1)=NCC2 was > 15.8 µM

IC50 measured on COc1cc2c(cc1Cl)C(c1ccccc1)=NCC2 = > 15.8 µM

###

# Assayed target: Mitogen-activated protein kinase 10 (Homo sapiens)
# Method: Inhibition of N-terminal His(6)-tagged truncated human JNK3 transfected in baculovirus expression system by fluorescence anisotropy
Readout label: IC50 (µM)

Record excerpt, results attached:
- COc1cc2c(cc1Cl)CCN=C2c1ccc(Cl)c(Cl)c1: 15.8
- COc1cc2c(cc1Cl)C(c1cccc(Br)c1)=NCC2: 0.398
- COc1cc2c(cc1Cl)C(c1cccc(Cl)c1)=NCC2: 0.251
- COc1cc2c(cc1Cl)C(c1ccccc1)=NCC2: 6.31
- COc1cc2c(cc1Cl)C(c1cccc(F)c1)=NCC2: 3.98

(I) COc1cc2c(cc1Cl)CCN=C2c1cccc(Br)c1
(II) COc1cc2c(cc1Cl)C(c1ccc(Cl)c(Cl)c1)=NCC2
(III) COc1cc2c(cc1Cl)C(c1ccc(F)cc1)=NCC2
(IV) COc1cc2c(cc1Cl)C(c1ccc3ccccc3c1)=NCC2
Give the ascending ranking of the items by reported IC50. # list labels per requested ordering
II, IV, III, I

(I) COc1cc2c(cc1OC)C(c1ccc(Cl)c(Cl)c1)=NCC2
(II) COc1cc2c(cc1Cl)C(c1cccc(C)c1)=NCC2
Two entries are listed, I and II . Which one carries the higher IC50? Please indicate the selected item by its label.
I
(I: 6.31 µM, II: 2 µM)

(1) COc1cc2c(cc1Cl)C(c1cccc(Cl)c1F)=NCC2
(2) COc1cc2c(cc1Cl)CCN=C2c1cccc(Cl)c1
Higher IC50: 1 or 2 ? Lab log: write the label of the selected item as the result.
2
